tgt: MATE2K (Homo sapiens, UniProt Q86VL8)
Sequence (Q86VL8 1-566 isoform Q86VL8-3): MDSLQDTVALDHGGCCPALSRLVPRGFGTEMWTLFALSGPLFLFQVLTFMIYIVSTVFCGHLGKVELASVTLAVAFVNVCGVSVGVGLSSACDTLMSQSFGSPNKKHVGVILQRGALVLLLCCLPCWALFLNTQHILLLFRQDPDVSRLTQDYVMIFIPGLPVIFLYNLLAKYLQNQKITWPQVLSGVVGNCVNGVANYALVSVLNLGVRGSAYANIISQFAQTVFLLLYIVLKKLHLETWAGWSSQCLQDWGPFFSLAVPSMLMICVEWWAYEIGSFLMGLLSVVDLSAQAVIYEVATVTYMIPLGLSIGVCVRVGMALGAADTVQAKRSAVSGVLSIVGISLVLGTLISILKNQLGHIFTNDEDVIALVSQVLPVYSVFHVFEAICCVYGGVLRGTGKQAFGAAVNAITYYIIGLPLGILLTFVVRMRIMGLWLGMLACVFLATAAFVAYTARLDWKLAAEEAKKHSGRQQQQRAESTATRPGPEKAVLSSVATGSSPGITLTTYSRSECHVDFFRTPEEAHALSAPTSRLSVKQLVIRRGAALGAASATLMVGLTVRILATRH
test: Uptake ratio in MATE2K-overexpressing HEK293 cells vs empty vector (2.5 μM, 1 min, HPLC-MS/MS)
Format: cell-based
Entries and their MATE2K ratio values follow.
quantity: MATE2K ratio

- compound: "COCCn1c2c([n+](Cc3cnccn3)c1C)C(=O)c1ccccc1C2=O [Sepantronium]"
  result_number: 9.45
- compound: "C1CCN2C[C@H]3C[C@H](CN4CCCC[C@@H]34)[C@H]2C1 [Sparteine (-), Sparteine]"
  result_number: 1.66
- compound: "COc1ccc(CCN)cc1O [4-Methoxy-m-tyramine]"
  result_number: 1.19
- compound: "NCCc1ccc(Oc2ccc(O)cc2)c(I)c1 [3-Iodothyronamine (T1AM), 3-Iodothyronamine]"
  result_number: 1.07
- compound: "C[N+]1(C)CCN(c2ccccc2)CC1 [Dimethylphenylpiperazinium]"
  result_number: 4.30
- compound: "CC(CCc1ccc(O)cc1)NCC(O)c1ccc(O)cc1 (stereo not drawn) [Ractopamine]"
  result_number: 1.40
- compound: "C[C@]12CCC(=O)C=C1CC[C@@H]1[C@@H]2CC[C@@]2(C)[C@H]1CC[C@]2(C)O [17-Alpha-methyltestosterone]"
  result_number: 1.22
- compound: "CC(N)[C@H](O)c1ccc(O)c(O)c1 (stereo partly drawn) [Alpha-methylnorepinephrine (-), Alpha-methylnorepinephrine]"
  result_number: 0.72
- compound: "COc1cc2c(cc1OC)-c1cc3ccc4c(c3c[n+]1CC2)OCO4 [Epiberberine]"
  result_number: 5.89
- compound: "O=c1cccc2n1C[C@@H]1CNC[C@H]2C1 [Cytisine]"
  result_number: 1.17
- compound: "N=C(Nc1ccccc1)Nc1ccccc1 [1,3-Diphenylguanidine]"
  result_number: 1.27
- compound: "COc1ccc2c3c1O[C@H]1C(=O)CC[C@@]4(O)[C@@H](C2)NCC[C@]314 [Noroxycodone]"
  result_number: 1.13
- compound: "CNCC1CCCCC1(O)c1cccc(OC)c1 (stereo not drawn) [N-Desmethyltramadol]"
  result_number: 1.19
- compound: "NC1Cc2cc3c(cc2C1)OCO3 [5,6-Methylenedioxy-2-aminoindane]"
  result_number: 1.24
- compound: "CNC(C)Cc1ccc(OC)cc1 (stereo not drawn) [para-Methoxy-N-methylamphetamine]"
  result_number: 1.52
- compound: "CCCCNC(=N)NC(=N)N [Buformin]"
  result_number: 2.37
- compound: "N[C@@H](CCC(=O)O)C(=O)O [Glutamic acid (D), Glutamic acid]"
  result_number: 0.99
- compound: "C=C[C@H]1CN2CC[C@H]1C[C@H]2[C@H](O)c1ccnc2ccccc12 [Cinchonidine]"
  result_number: 1.14

---

tgt: UniProt Q86VL8
test: Uptake ratio in MATE2K-overexpressing HEK293 cells vs empty vector (2.5 μM, 1 min, HPLC-MS/MS)
Assay type: cell-based
condition_context: mean ratio of uptake in MATE2K-overexpressing HEK293 cells vs empty vector; 2.5 μM, 1 min

- molecule: "NCCCCN=C(N)N"
  MATE2 (uptake ratio): 1.05
- molecule: "OC(CCN1CCCCC1)(c1ccccc1)C1CC2C=CC1C2 (stereo not drawn)"
  MATE2 (uptake ratio): 1.15
- molecule: "CCCC(=O)OC(CC(=O)[O-])C[N+](C)(C)C (stereo not drawn)"
  MATE2 (uptake ratio): 1.09
- molecule: "COc1ccc(-n2nc(C(N)=O)c3c2C(=O)N(c2ccc(N4CCCCC4=O)cc2)CC3)cc1"
  MATE2 (uptake ratio): 1.15
- molecule: "O=C(O[C@H]1C[N+]2(CCCOc3ccccc3)CCC1CC2)C(O)(c1cccs1)c1cccs1 [Aclidinium (S), Aclidinium]"
  MATE2 (uptake ratio): 1.64
- molecule: "C[N+](C)(C)CCO"
  MATE2 (uptake ratio): 1.09
- molecule: "C=CCN1CCCC1CNC(=O)c1cc2nn[nH]c2cc1OC (stereo not drawn) [Alizapride]"
  MATE2 (uptake ratio): 2.64
- molecule: "CCS(=O)(=O)N1CC(CC#N)(n2cc(-c3ncnc4[nH]ccc34)cn2)C1"
  MATE2 (uptake ratio): 1.04
- molecule: "CNCC[C@@H](Oc1ccccc1C)c1ccccc1 [Atomoxetine (S), Atomoxetine]"
  MATE2 (uptake ratio): 1.03
